Hey, just so you know, these numbers are from ChEMBL document CHEMBL4396885.

Test system: A549
procedure_details: Antiproliferative activity against human A549 cells assessed as growth inhibition at 2 uM after 72 hrs by CCK-8 assay relative to control
Assay type: functional
study_conditions: A549, 72 h, read-out: GI
Answer NO if inhibition of growth at 2 µM is under 50%, and YES if it is 50% or more.

smiles=Cc1ccc(SCc2ccc(/C=C/C(=O)Nc3ccccc3N)cc2)cc1 label_value=NO
smiles=COC(=O)c1ccccc1SCc1ccc(C(=O)Nc2ccccc2N)cc1 label_value=NO
smiles=Cc1cc(C)cc(SCc2ccc(C(=O)Nc3ccccc3N)cc2)c1 label_value=NO
smiles=Nc1ccccc1NC(=O)c1ccc(CSc2nccc(C(F)(F)F)n2)cc1 label_value=YES
smiles=CC(C)(C)c1ccc(SCc2ccc(/C=C/C(=O)Nc3ccccc3N)cc2)cc1 label_value=YES
smiles=Nc1ccccc1NC(=O)c1ccc(CSc2cccc(F)c2)cc1 label_value=NO
smiles=CC(C)(C)c1ccc(SCc2ccc(C(=O)Nc3ccccc3N)cc2)cc1 label_value=NO
smiles=Cc1cc(C)cc(SCc2ccc(/C=C/C(=O)Nc3ccccc3N)cc2)c1 label_value=NO

input: # bool: inhibition of growth at 2 µM of COc1ccc(SCc2ccc(C(=O)Nc3ccccc3N)cc2)cc1OC >= 50%
output: NO

input: # bool: inhibition of growth at 2 µM of Nc1ccc(F)cc1NC(=O)c1ccc(CNC(=O)/C=C/c2cccnc2)cc1 >= 50%
output: NO

input: # bool: inhibition of growth at 2 µM of COc1ccc(SCc2ccc(C(=O)Nc3ccccc3N)cc2)cc1 >= 50%
output: NO

====

Examples of compounds with documented IC50 follow.
experimental_target: Protein deacetylase HDAC6 (Homo sapiens, UniProt Q9UBN7)
Sequence (Q9UBN7 whole entry): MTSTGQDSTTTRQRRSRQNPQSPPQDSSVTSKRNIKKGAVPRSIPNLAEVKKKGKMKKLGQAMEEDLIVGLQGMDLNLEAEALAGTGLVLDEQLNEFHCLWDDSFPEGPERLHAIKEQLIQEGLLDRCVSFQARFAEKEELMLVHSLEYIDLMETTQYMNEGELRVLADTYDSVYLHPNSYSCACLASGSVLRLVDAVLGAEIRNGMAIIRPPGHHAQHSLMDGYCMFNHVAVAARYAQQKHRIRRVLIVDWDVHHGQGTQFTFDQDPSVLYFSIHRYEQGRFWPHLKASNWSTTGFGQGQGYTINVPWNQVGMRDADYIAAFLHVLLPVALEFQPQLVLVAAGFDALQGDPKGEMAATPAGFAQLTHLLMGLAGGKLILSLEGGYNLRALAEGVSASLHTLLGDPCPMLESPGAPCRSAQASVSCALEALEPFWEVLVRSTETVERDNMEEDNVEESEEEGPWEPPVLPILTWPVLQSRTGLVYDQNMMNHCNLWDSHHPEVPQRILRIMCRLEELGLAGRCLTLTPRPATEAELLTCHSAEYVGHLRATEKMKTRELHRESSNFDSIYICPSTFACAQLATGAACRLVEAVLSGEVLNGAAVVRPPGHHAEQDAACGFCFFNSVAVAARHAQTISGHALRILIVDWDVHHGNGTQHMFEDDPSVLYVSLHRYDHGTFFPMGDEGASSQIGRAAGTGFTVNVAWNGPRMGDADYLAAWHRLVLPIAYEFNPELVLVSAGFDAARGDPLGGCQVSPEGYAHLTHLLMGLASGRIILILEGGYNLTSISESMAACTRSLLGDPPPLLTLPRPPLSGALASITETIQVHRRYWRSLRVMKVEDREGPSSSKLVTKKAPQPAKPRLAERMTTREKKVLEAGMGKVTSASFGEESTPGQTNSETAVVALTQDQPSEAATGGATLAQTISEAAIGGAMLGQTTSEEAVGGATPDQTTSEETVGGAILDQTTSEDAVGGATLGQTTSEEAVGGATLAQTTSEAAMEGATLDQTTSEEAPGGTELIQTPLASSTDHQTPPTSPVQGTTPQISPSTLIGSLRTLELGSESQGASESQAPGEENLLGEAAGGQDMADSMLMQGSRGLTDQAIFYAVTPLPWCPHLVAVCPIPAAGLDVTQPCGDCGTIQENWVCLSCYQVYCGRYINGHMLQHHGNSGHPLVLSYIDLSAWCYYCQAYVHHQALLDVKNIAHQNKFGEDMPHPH
procedure_details: Inhibition of recombinant human His tagged HDAC6 expressed in baculovirus infected insect cells assessed as decrease in deacetylation of FLUOR DE LYS SIRT1 substrate by measuring decrease in fluorescence preincubated for 10 mins followed by substrate addition and measured after 30 mins by fluorescence based assay

smiles=Nc1ccccc1NC(=O)c1ccc(CSc2nccc(C(F)(F)F)n2)cc1 experimental_target="Protein deacetylase HDAC6 (Homo sapiens, UniProt Q9UBN7)" value_type=IC50 recorded_measurement="> 32 µM"
smiles=COc1ccc(SCc2ccc(C(=O)Nc3ccccc3N)cc2)cc1 experimental_target="Protein deacetylase HDAC6 (Homo sapiens, UniProt Q9UBN7)" value_type=IC50 recorded_measurement="> 32 µM"
smiles=CCc1ccc(SCc2ccc(C(=O)Nc3ccccc3N)cc2)cc1 experimental_target="Protein deacetylase HDAC6 (Homo sapiens, UniProt Q9UBN7)" value_type=IC50 recorded_measurement="> 32 µM"

Proceed to the following item.
input: Which IC50 is reported for this compound? Cc1cc(C)cc(SCc2ccc(C(=O)Nc3ccccc3N)cc2)c1
output: > 32 µM

====

Test system: A549
procedure_details: Antiproliferative activity against human A549 cells assessed as decrease in cell viability after 72 hrs by CCK-8 assay
Assay type: functional, cell-based
study_conditions: A549, 72 h
value_type: pIC50
In plain terms, pIC50 is the concentration in mol/L turned into minus its base-10 logarithm.

Answered examples (8):
molecule=CCc1ccc(SCc2ccc(/C=C/C(=O)Nc3ccccc3N)cc2)cc1 recorded_measurement=5.89
molecule=CC(C)(C)c1ccc(SCc2ccc(/C=C/C(=O)Nc3ccccc3N)cc2)cc1 recorded_measurement=6.19
molecule=COc1ccc(SCc2ccc(C(=O)Nc3ccccc3N)cc2)cc1 recorded_measurement=5.59
molecule=Nc1ccc(F)cc1NC(=O)c1ccc(CNC(=O)/C=C/c2cccnc2)cc1 recorded_measurement=5.17
molecule=Nc1ccccc1NC(=O)/C=C/c1ccc(CSc2ccc(F)cc2)cc1 recorded_measurement=5.92
molecule=Nc1ccccc1NC(=O)/C=C/c1ccc(CSCCc2ccccc2)cc1 recorded_measurement=5.94
molecule="CC(=O)Nc1ccc(C(=O)Nc2ccccc2N)cc1 [TACEDINALINE]" recorded_measurement=4.78
molecule=COc1ccc(SCc2ccc(C(=O)Nc3ccccc3N)cc2)cc1OC recorded_measurement=5.25

input: Which pIC50 is reported for this molecule? CCc1ccc(SCc2ccc(C(=O)Nc3ccccc3N)cc2)cc1
output: 5.52

input: Which pIC50 is reported for this molecule? Nc1ccccc1NC(=O)/C=C/c1ccc(CSc2cccc3ccccc23)cc1
output: 6.08

input: Which pIC50 is reported for this molecule? Nc1ccccc1NC(=O)c1ccc(CSc2nccc(C(F)(F)F)n2)cc1
output: 6.01

input: Which pIC50 is reported for this molecule? Cc1ccc(SCc2ccc(C(=O)Nc3ccccc3N)cc2)cc1
output: 5.49

input: Which pIC50 is reported for this molecule? Cc1cc(C)cc(SCc2ccc(C(=O)Nc3ccccc3N)cc2)c1
output: 5.54

input: Which pIC50 is reported for this molecule? Nc1ccccc1NC(=O)c1ccc(CSCCc2ccccc2)cc1
output: 5.49
